Values were extracted from paper PMC3532212.

Test: Plasma concentrations in repeat-dosing study, satellite rats
Assay type: in vivo, rat
Settings: male, Sprague Dawley, rat, plasma, po, 5 mg/kg/day, rat, FTY720 5.0 mg/kg/d p.o., Day 1, 24 hr post-dose, mean±SEM
METRIC_NAME: concentration at 24 h (nM)
Numbers only here, please. The scale is nM.

Sample CCCCCCCCc1ccc(CCC(N)(CO)CO)cc1 [FTY720] — what was its concentration at 24 h?
17

###

Test: Plasma concentrations after a single oral dose in rats
Type: in vivo
Settings: male, Sprague Dawley, plasma; rat, FTY720 10.0 mg/kg single oral dose, 72 hr post-dose, mean±SEM
METRIC_NAME: concentration at 72 h
Kindly format the answer as number then unit.

Report concentration at 72 h for CCCCCCCCc1ccc(CCC(N)(CO)CO)cc1 please.
101 nM
